MEASURED PARAMETER: pIC50
Scale: pIC50 equals -log10([C]), with [C] in mol/L.

Ask | Request body: readout pIC50, system Human immunodeficiency virus type 1 integrase (Human immunodeficiency virus 1), query Cc1cc2cc(O)c(O)cc2c(C)c1-c1ccccc1C(F)(F)F . Return the value.
Reply | 4.66

Ask | Request body: readout pIC50, system Human immunodeficiency virus type 1 integrase (Human immunodeficiency virus 1), query Cc1cc2cc(O)c(O)cc2c(C)c1-c1cccc(C(F)(F)F)c1 . Return the value.
Reply | 4.89

Ask | Request body: readout pIC50, system Human immunodeficiency virus type 1 integrase (Human immunodeficiency virus 1), query Cc1cc2ccc(F)cc2c(C)c1-c1ccc(O)c(O)c1 . Return the value.
Reply | 3.30

Ask | Request body: readout pIC50, system Human immunodeficiency virus type 1 integrase (Human immunodeficiency virus 1), query Cc1cc2c(F)cccc2c(C)c1-c1ccc(O)c(O)c1 . Return the value.
Reply | 3.30

Ask | Request body: readout pIC50, system Human immunodeficiency virus type 1 integrase (Human immunodeficiency virus 1), query Cc1cc2cc(O)c(O)cc2c(C)c1-c1ccc(F)cc1 . Return the value.
Reply | 3.86

Ask | Request body: readout pIC50, system Human immunodeficiency virus type 1 integrase (Human immunodeficiency virus 1), query Cc1cc2cc(O)c(O)cc2c(C)c1-c1ccccc1F . Return the value.
Reply | 3.30

Ask | Request body: readout pIC50, system Human immunodeficiency virus type 1 integrase (Human immunodeficiency virus 1), query Cc1ccc(-c2c(C)cc3cc(O)c(O)cc3c2C)cc1 . Return the value.
Reply | 4.08

Ask | Request body: readout pIC50, system Human immunodeficiency virus type 1 integrase (Human immunodeficiency virus 1), query Oc1cc2c(cc1O)C1Cc3cc(O)c(O)cc3C(C2)O1 . Return the value.
Reply | 5.89

Ask | Request body: readout pIC50, system Human immunodeficiency virus type 1 integrase (Human immunodeficiency virus 1), query Cc1cc2cc(O)c(O)cc2c(C)c1-c1ccc(C(F)(F)F)cc1 . Return the value.
Reply | 4.68

Ask | Request body: readout pIC50, system Human immunodeficiency virus type 1 integrase (Human immunodeficiency virus 1), query Cc1cc2cc(O)c(O)cc2c(C)c1-c1ccc(O)c(O)c1 . Return the value.
Reply | 4.64

Ask | Request body: readout pIC50, system Human immunodeficiency virus type 1 integrase (Human immunodeficiency virus 1), query Cc1cc2ccccc2c(C)c1-c1ccc(O)c(O)c1 . Return the value.
Reply | 3.30

Ask | Request body: readout pIC50, system Human immunodeficiency virus type 1 integrase (Human immunodeficiency virus 1), query Oc1ccc(-c2ccc3cc(O)c(O)cc3c2)cc1O . Return the value.
Reply | 5.68

Ask | Request body: readout pIC50, system Human immunodeficiency virus type 1 integrase (Human immunodeficiency virus 1), query Cc1cc2cc(O)c(O)cc2c(C)c1-c1ccccc1 . Return the value.
Reply | 4.12

Ask | Request body: readout pIC50, system Human immunodeficiency virus type 1 integrase (Human immunodeficiency virus 1), query Cc1ccc2cc(C)c(-c3ccc(O)c(O)c3)c(C)c2c1 . Return the value.
Reply | 3.80

----------
test system: CCRF-CEM; assay: Tested for antiviral activity against Human Immunodeficiency virus (HIV-1) replication in CEM cells.; assay type: functional, cell-based
MEASURED PARAMETER: IC50 (µM)
All answers are understood in µM, so give the number only.

Ask | Item Cc1cc2cc(O)c(O)cc2c(C)c1-c1cccc(C(F)(F)F)c1 has what recorded IC50?
Reply | 5.7

Ask | Item Cc1cc2cc(O)c(O)cc2c(C)c1-c1ccc(O)c(O)c1 has what recorded IC50?
Reply | 8.7

Ask | Item Cc1cc2cc(O)c(O)cc2c(C)c1-c1ccc(C(F)(F)F)cc1 has what recorded IC50?
Reply | 10.5

Ask | Item Cc1cc2cc(O)c(O)cc2c(C)c1-c1ccccc1C(F)(F)F has what recorded IC50?
Reply | 10.3

Ask | Item Oc1ccc(-c2ccc3cc(O)c(O)cc3c2)cc1O has what recorded IC50?
Reply | 9.9

Ask | Item Oc1cc2c(cc1O)C1Cc3cc(O)c(O)cc3C(C2)O1 has what recorded IC50?
Reply | 98
